# Tested on: HT-29
# protocol details: Cytotoxicity against human HT-29 cells after 3 days by sulforhodamine B assay
# Type: functional
# condition label: HT-29, 72 h, read-out: ED50 (the source's name)
pEC50: −log10 of the molar value.
endpoint: pEC50

Q) Quick one: pEC50 of COc1c(OC(=O)c2ccccc2)cc2oc3cc(O)c(CC=C(C)C)c(O)c3c(=O)c2c1CC=C(C)C ?
A) 5.72

Q) One more compound: COc1cc2oc3cc(OC)c(OC)c(CC=C(C)C)c3c(=O)c2c(O)c1CC=C(C)C
A) < 5.00

----------
# Test system: HT-29
# protocol details: Cytotoxicity against human HT-29 cells after 3 days by sulforhodamine B assay
# Type: functional
# condition label: HT-29, 72 h, read-out: ED50 (the source's name)
Labelling: EC50 reported below 4 µM becomes y; at or above becomes n.

COc1c(OC(C)=O)cc2oc3cc(OC(C)=O)c(CC=C(C)C)c(O)c3c(=O)c2c1CC=C(C)C    y
CC(C)=CCc1c(O)c(CC=C(C)C)c2oc3ccc(O)cc3c(=O)c2c1O    n
COc1c(O)cc2oc3cc4c(c(O)c3c(=O)c2c1CCC(C)(C)O)CCC(C)(C)O4    n
CC(C)=CC[C@]12OC(C)(C)[C@H]3C[C@H](C=C4C(=O)c5c(O)cc(O)cc5O[C@@]431)C2=O    n
CC(=O)O[C@H]1C(=O)[C@@]2(C)[C@H]([C@H](OC(=O)c3ccccc3)[C@]3(O)C[C@H](OC(=O)[C@H](O)[C@@H](NC(=O)c4ccccc4)c4ccccc4)C(C)=C1C3(C)C)[C@]1(OC(C)=O)CO[C@@H]1C[C@@H]2O    y
COc1c(OC(C)=O)cc2oc3cc(OC(C)=O)c(CC=C(C)C)c(OC(C)=O)c3c(=O)c2c1CC=C(C)C    n
COc1c(O)cc2oc3cc(OC(C)=O)c(CC=C(C)C)c(O)c3c(=O)c2c1CC=C(C)C    n
CC(=O)Oc1ccc2oc3c(C/C=C(\C)CCC=C(C)C)c(OC(C)=O)c(CC=C(C)C)c(O)c3c(=O)c2c1    n

Q) I'd appreciate it if you could check whether CC(C)=CCC/C(C)=C/Cc1c(O)c2c(c3c(=O)c4cc(O)ccc4oc13)OC(C)(C)[C@@H](O)C2 has EC50 smaller than 4 µM.
A) n
